Please respond with reported ELISA virus binding (OD450) for every item in the list.
Target: hemagglutinin (HA) of influenza A/Japan/305/57 (H2N2) on whole virions (Influenza A virus A/Japan/305/1957(H2N2), UniProt P03451 16-562)
Assay: ELISA; BCC supernatant on coated inactivated whole virions
Include the unit right after the number.

Solved entries:
binder	ELISA virus binding (OD450)
TCN-556 (5089_K12) (antibody, V domains shown) VH: QVQLVQSGAEVKKPGASVKVSCKASGYTFIGYDMHWVRQAPGQGLEWMGWINAKRGGTNYAQKFQGRVTMTRDTSISTAYMELNSLRSDDTAVYYCARGVGSRTTIFGVLNPEFDYWGQGTLVTVSS VL: QSALTQPPSASGSPGQSVTISCTGSSSDVGGYDYVSWYQQHPGKAPKLLIYEVTKRPSGVPDRFSGSKSGNTASLTVSGLQAEDEADYYCSSYAGNYNHVFGPGTKVTVL	2.41 OD450
TCN-557 (5081_A04) (antibody, V domains shown) VH: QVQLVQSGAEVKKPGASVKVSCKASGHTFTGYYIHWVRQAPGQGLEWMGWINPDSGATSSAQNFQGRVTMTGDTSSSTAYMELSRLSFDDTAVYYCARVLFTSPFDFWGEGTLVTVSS VL: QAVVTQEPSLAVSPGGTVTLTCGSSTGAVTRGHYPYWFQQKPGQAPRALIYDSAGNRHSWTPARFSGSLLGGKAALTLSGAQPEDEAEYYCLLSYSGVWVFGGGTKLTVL	2.7 OD450

# ---- query binder ----
Data request: Entry TCN-553 (5261_C18) (antibody, V domains shown) VH: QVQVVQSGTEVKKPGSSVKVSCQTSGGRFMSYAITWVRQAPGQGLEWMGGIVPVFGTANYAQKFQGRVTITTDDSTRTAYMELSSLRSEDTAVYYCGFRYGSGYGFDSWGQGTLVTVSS VL: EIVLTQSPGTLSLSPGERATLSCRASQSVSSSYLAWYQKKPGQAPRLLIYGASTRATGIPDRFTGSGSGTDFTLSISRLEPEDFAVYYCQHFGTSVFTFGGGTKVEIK needs its ELISA virus binding (OD450) filled in; supply it.
Data returned: 2.54 OD450
